Numbers sourced from patent US7026469B2.

CC50 values by entry
System: CEM-SS cells
EXPERIMENT SUMMARY: Cytotoxicity (TC50) of the compounds tested for anti-HIV-1 activity
Type: cell-based, human
STATED CONDITIONS: read-out: Cytotoxicity (TC50)
READOUT KIND: CC50 (µM)

>>> quantitative_readout("CCCCCCCCCCCCSCC(COP(=O)([O-])OCC[N+](C)(C)C)OCCCCCCCCCCOC(=O)CC(=O)OC[C@H]1O[C@@H](n2cc(C)c(=O)[nH]c2=O)C[C@@H]1N=[N+]=[N-] (stereo partly shown) [INK-25]")
13.6
>>> quantitative_readout("CCCCCCCCCCCCSCC(COP(=O)([O-])OCC[N+](C)(C)C)OCCCCCCCCCCCCOC(=O)CC(=O)OC[C@H]1O[C@@H](n2cc(C)c(=O)[nH]c2=O)C[C@@H]1N=[N+]=[N-] (stereo partly shown) [INK-26]")
11.6
>>> quantitative_readout("CCCCCCCCCCCCSCC(COP(=O)([O-])OCC[N+](C)(C)C)OCCCCCCCCCCCCO (stereo not shown) [INK-24]")
80.6

###

EC50 values by entry
System: AZT-resistant clinical isolates of HIV-1
EXPERIMENT SUMMARY: microbe, parasite or virus in culture
Assay type: cell-based
STATED CONDITIONS: post-AZT isolate, patient code G-691; mean of 2 to 4 independent tests; read-out: EC50 Post-AZT G-691
READOUT KIND: EC50 (nM)

>>> quantitative_readout("CCCCCCCCCCCCSCC(COP(=O)([O-])OCC[N+](C)(C)C)OCCCCCCCCOCc1ccccc1 (stereo not shown) [INK-17]")
180
>>> quantitative_readout("CCCCCCCCCCCCSCC(COP(=O)([O-])OCC[N+](C)(C)C)OCCCCCCCCC(=O)OCC(=O)OC[C@H]1O[C@@H](n2cc(C)c(=O)[nH]c2=O)C[C@@H]1N=[N+]=[N-] (stereo partly shown) [INK-20]")
740
>>> quantitative_readout("CCCCCCCCCCCCSCC(COP(=O)([O-])OCC[N+](C)(C)C)OCCCCCCCCCCCCO (stereo not shown) [INK-24]")
80
>>> quantitative_readout("CCCCCCCCCCCCSCC(COC(=O)CC(=O)OC[C@H]1O[C@@H](n2cc(C)c(=O)[nH]c2=O)C[C@@H]1N=[N+]=[N-])OC (stereo partly shown) [INK-19]")
1620
